EXPERIMENTAL TARGET: Estrogen receptor (Homo sapiens)
Sequence (P03372 whole entry): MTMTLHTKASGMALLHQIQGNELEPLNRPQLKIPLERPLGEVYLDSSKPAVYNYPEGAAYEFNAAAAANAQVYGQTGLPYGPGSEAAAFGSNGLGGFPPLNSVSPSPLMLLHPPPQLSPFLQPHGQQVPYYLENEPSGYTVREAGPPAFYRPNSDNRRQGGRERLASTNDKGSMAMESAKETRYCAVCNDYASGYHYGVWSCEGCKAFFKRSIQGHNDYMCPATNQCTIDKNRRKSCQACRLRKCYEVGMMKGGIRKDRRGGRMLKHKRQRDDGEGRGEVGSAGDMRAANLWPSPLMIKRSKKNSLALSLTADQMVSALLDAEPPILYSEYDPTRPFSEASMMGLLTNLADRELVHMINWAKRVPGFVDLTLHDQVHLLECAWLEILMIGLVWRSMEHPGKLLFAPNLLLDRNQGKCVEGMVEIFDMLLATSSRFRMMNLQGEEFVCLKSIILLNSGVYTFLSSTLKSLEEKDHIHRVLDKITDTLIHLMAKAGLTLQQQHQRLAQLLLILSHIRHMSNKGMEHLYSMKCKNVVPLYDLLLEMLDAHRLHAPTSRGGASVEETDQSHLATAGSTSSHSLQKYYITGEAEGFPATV
ASSAY NAME: Displacement of [3H]-estradiol from human recombinant estrogen receptor expressed in insect cells incubated for 17 hrs by radioactive receptor binding assay
MEASURE NAME: IC50 (nM)
Number only, in nM; omit the unit.

Provide IC50, tested on Estrogen receptor (Homo sapiens), for `C[C@@H]1C[C@@]12c1ccc3c(ccc4ccc(O)cc43)c1C[C@@H]2O` .
10
